Experimental Setup: human, Caco-2
Metric Name: remaining at 3 h (%)
Please reply with the bare figure in % and do not write the unit itself.

Record summary for Ac-WAGGDA-NH2 [Ac-Trp-Ala-Gly-Gly-Asp-Ala-NH2, reference compound] : reported remaining at 3 h = 75.8

----------
Experimental Setup: human, Caco-2
Where no end group is shown, it is not given here.
Metric Name: remaining at 2 h

Record summary for WAGGDA [Trp-Ala-Gly-Gly-Asp-Ala, reference compound] : reported remaining at 2 h = 0.8%

----------
Experimental Setup: rat, whole blood, pH 7.4
Where a SMILES comes first, the peptide text is derived from it.
Metric Name: half-life (h)
Please reply with the bare figure in h and do not write the unit itself.

Record summary for C[C@@H]1NC(=O)[C@H](Cc2c[nH]c3ccccc23)NC(=O)OCOC(=O)[C@H](C)NC(=O)[C@H](CC(=O)O)NC(=O)CNC(=O)CNC1=O [1a] (HELM PEPTIDE1{W.A.G.G.D.A}|CHEM1{[O=C(OCO[*:2])[*:1]]}$PEPTIDE1,CHEM1,1:R1-1:R1|PEPTIDE1,CHEM1,6:R2-1:R2$$$V2.0) : reported half-life = 1.85
